System: Balb/c mice
Test: Prevention of concanavalin A liver injury
Assay type: in vivo, mouse
Settings: Mus musculus, po, 24 h, 10 mg/mL suspension at 10 mL/kg, 30 min prior to Con A, plasma 24 hr after Con A, read-out: Preventing rate against liver injury, ALT (%)
Protocol: Five (5) Balb/c mice (female, 6-8 weeks old) per group were used. […] Twenty four (24) hr after the injection of Con A, blood was collected from the abdominal aorta of the mice and the plasma was isolated while mixing with heparin. Activities of glutamic acid oxaloacetic acid transaminase (AST) and glutamic acid pyruvic acid transaminase (ALT) in the plasma were determined according to the methods described by Nagakawa et al. (J. Pharmacol. Exp. Ther., 264, 496-500 (1993)). […]
Please use y whenever inhibition in vivo at 10000 µg/mL, 100 mg/kg is not below 40%, and n whenever it is.

# COMPOUND, EXPERIMENTAL_SYSTEM, CLASS_ASSIGNMENT
measured = [
    ("O=C(Nc1ccc(S(=O)(=O)Nc2cccnc2)cc1)c1cc([N+](=O)[O-])ccc1Cl [Example 178]", "Balb/c mice", "y"),
    ("COc1cnc(NS(=O)(=O)c2ccc(NC(=O)c3cc([N+](=O)[O-])ccc3Cl)cc2)nc1 [Example 105]", "Balb/c mice", "n"),
    ("CC(=O)Nc1ccc(-c2ccc(NC(=O)c3cc([N+](=O)[O-])ccc3Cl)cc2)cc1 [Example 118]", "Balb/c mice", "y"),
    ("CN(C)c1ccc(-c2ccc(NC(=O)c3cc([N+](=O)[O-])ccc3Cl)cc2)cc1 [Example 53]", "Balb/c mice", "n"),
    ("O=C(Nc1ccc(-c2ccccc2)cc1)c1cc([N+](=O)[O-])ccc1Cl [Example 2]", "Balb/c mice", "y"),
]

Q) Determine whether measured inhibition in vivo at 10000 µg/mL, 100 mg/kg meets or exceeds 40% for O=C(Nc1ccncc1)c1cc([N+](=O)[O-])ccc1Cl [Example 49]
A) y
